Hey, just so you know, these numbers are from patent US20200223906A1.

Molecular target: RSV F protein of subtype B (18537) on recombinant mKate-RSV (respiratory syncytial virus subtype B …, UniProt P13843 26-574)
Assay: cell-based or functional assay
Neut IC50 subtype B vs 0.8 µg/mL: less than gives Satisfied; not less than gives Not satisfied.

Input ADI-19005 (antibody, V domains shown) VH: QVQLVQSGAEVKKPGASVRVSCKASGYTFTDYFMNWVRQAPGGGLEWMGWINPLSGVTKYAQQFQGSVTMTTDTSITTGYMELRSLRVDDTAVYYCASQSSPYTPGAMGVWGQGTTVTVSS VL: DIRMTQSPSSLSASVGDRVTITCRTSQSVSGYLSWYQQKPGKAPKLLIYAASNLYSGVPSRFSGSGSGTDFTLTITSLQPEDFATYFCQLNSGALFTFGPGTKVEIK ; condition: Neut IC50 subtype B strictly below 0.8 µg/mL. Does it hold?
Satisfied

Also, ADI-18983 (antibody, V domains shown) VH: EVQLVESGGGVVQPGRSLRLSCAASGFTFSSFSMHWVRQAPGKGLEWVALISSDERNSYYADSVKGRFTISRDNSKNTLYLQISRLKVEDTAVYYCAREAYEEWELTMGNLDHWGQGTLVTVSS VL: DIQLTQSPSSLSASVGDRVTITCRASQGIGNDLGWYQQKPGKAPKRLIYSTYSLQSGVPSRFSGSGSGTEFTLTISSLQPEDFATYYCLQHNRYPFTFGPGTKLEIK please.
Satisfied

Also, ADI-18990 (antibody, V domains shown, full-length IgG) VH: QVQLQESGPGRVKPSQTLSLTCTVSGVSVTINDYYWTWLRQSPGKGLEWIGNIYNSGSTYQNPSLQSRVTMSVDTAKNHFSLKLTSVTAADTAVYYCARDLGTANNYYFGMDVWGLGTTVTVSS VL: DIVLTQSPATLSLSPGERATLSCRASQSVSTYLAWYQQKPGQAPRLLIYNGSNRVTGTPARFSGSGSGTDFTLTISSVEPEDFAVYYCQQRSNWPPYTFGQGTKVEIK please.
Not satisfied

Also, ADI-18984 (antibody, V domains shown, full-length IgG) VH: QVQLQESGPGLVKPSETLSLTCTVSGASVTTNTYYWTWIRQPPGKELEWIGYIHHTGNTHYNPSLESRLTMSLDTSRNQFSLNLRSATTADTAVYYCARGEHFAYWWGNWGQGALVTVSS VL: DIRVTQSPSSVSASVGDRVTITCRASQGIARWLAWYQQKPGKAPKLLIYAASSLQGGVPSRFSGSGYGTDFTLTISSLQPEDFATYYCQQANSFPRTFGQGTKVEIK please.
Not satisfied

Also, ADI-18981 (antibody, V domains shown, full-length IgG; also called Antibody Number 329) VH: EVQLQESGSRLVKPSQTLSLTCSVSGGSLNAGGYLWSWIRQPPGKGLEWVGYIYPSGTTYYNPSLQSRISISQDRSRNQFSLSVASVTAADTAVYYCARCGNEYGEVHPFDIWGQGTTVTVSS VL: EIVLTQSPGTLSLSPGERATLSCRGSPIVGNNYLAWYQQKPGQAPRLLIYAASIRATGIPDRFSGSGSGTDFTLTISRLEPEDFAVYYCQQYGSSPWTFGQGTKVDIK please.
Not satisfied
